# Tested on: Pseudomonas fluorescens
# Assay Notes: Growth inhibition of Pseudomonas fluorescens NCIM 2059 at 1 ug/ml measured after 8 hrs relative to control
# Assay type: functional
# Condition Set: NCIM 2059, 8 h, read-out: GI
Measurement Name: inhibition of growth at 1 µg/mL (%)
# output: bare number, implied unit %

Cc1nc(-c2ccc(F)cc2)oc1-c1csc(-c2ccccc2)n1; 22.4
Cc1nc(-c2ccccc2)oc1-c1csc(-c2ccc(F)c(Cl)c2)n1; 69.8
Cc1nc(-c2ccc(F)cc2)oc1-c1csc(-c2ccc(F)c(Cl)c2)n1; 44.3
Cc1nc(-c2ccc(F)cc2)oc1-c1csc(-c2ccc(Cl)cc2)n1; 0.52
Cc1nc(-c2ccccc2)oc1-c1csc(Cc2ccc(Cl)cc2)n1; 81

Entry `Cc1nc(-c2ccc(F)cc2)oc1-c1csc(Cc2cccc(Cl)c2)n1` : inhibition of growth at 1 µg/mL on Pseudomonas fluorescens = 72.5

Entry `Cc1nc(-c2ccc(F)cc2)oc1-c1csc(-c2ccc(Br)cc2)n1` : inhibition of growth at 1 µg/mL on Pseudomonas fluorescens = 48.6

Entry `Cc1nc(-c2ccc(F)cc2)oc1-c1csc(-c2cccc(Cl)c2)n1` : inhibition of growth at 1 µg/mL on Pseudomonas fluorescens = 24.8

Entry `Cc1nc(-c2ccc(F)cc2)oc1-c1csc(Cc2ccc(Cl)cc2)n1` : inhibition of growth at 1 µg/mL on Pseudomonas fluorescens = 4.37

Entry `Cc1nc(-c2ccc(F)cc2)oc1-c1csc(Cc2ccc(F)cc2)n1` : inhibition of growth at 1 µg/mL on Pseudomonas fluorescens = 78.6

Entry `Cc1nc(-c2ccccc2)oc1-c1csc(Cc2cccc(Cl)c2)n1` : inhibition of growth at 1 µg/mL on Pseudomonas fluorescens = 79.3

###

# Assay Notes: Growth inhibition of human PANC1 cells by MTT assay
# Type: cell-based, PANC-1
# Condition Set: PANC-1 cells
Here, each record is paired with measured GI50 data.

Previously resolved entries follow.
Cc1nc(-c2ccccc2)oc1-c1csc(-c2ccccc2)n1; > 250 µg/mL
Cc1nc(-c2ccc(F)cc2)oc1-c1csc(Cc2cccc(Cl)c2)n1; > 250 µg/mL
Cc1nc(-c2ccc(F)cc2)oc1-c1csc(Cc2ccccc2)n1; > 250 µg/mL
Cc1nc(-c2ccccc2)oc1-c1csc(Cc2ccc(Cl)cc2)n1; > 250 µg/mL
Cc1nc(-c2ccc(F)cc2)oc1-c1csc(Cc2ccc(F)cc2)n1; > 250 µg/mL

Reported GI50 for `Cc1nc(-c2ccccc2)oc1-c1csc(Cc2cccc(Cl)c2)n1` was > 250 µg/mL

Reported GI50 for `CO[C@H]1/C=C/O[C@@]2(C)Oc3c(C)c(O)c4c(O)c(c(/C=N/N5CCN(C)CC5)c(O)c4c3C2=O)NC(=O)/C(C)=C\C=C\[C@H](C)[C@H](O)[C@@H](C)[C@@H](O)[C@@H](C)[C@H](OC(C)=O)[C@@H]1C` was > 100 µg/mL

###

# System: Staphylococcus aureus
# Assay Notes: Growth inhibition of Staphylococcus aureus NCIM 2602 at 1 ug/ml measured after 12 hrs relative to control
# Assay type: functional
# Condition Set: NCIM 2602, 12 h, read-out: GI
Measurement Name: inhibition of growth at 1 µg/mL (%)
# output: bare number, implied unit %

Previously resolved entries follow.
Cc1nc(-c2ccc(F)cc2)oc1-c1csc(-c2ccc(F)c(Cl)c2)n1; 45.7
CC1(C)S[C@@H]2[C@H](NC(=O)[C@H](N)c3ccccc3)C(=O)N2[C@H]1C(=O)O; 98.2
Cc1nc(-c2ccc(F)cc2)oc1-c1csc(-c2ccc(F)cc2)n1; 43

Reported inhibition of growth at 1 µg/mL for `Cc1nc(-c2ccccc2)oc1-c1csc(Cc2ccc(Cl)cc2)n1` was 79.1
